Provide the reported inhibition of each item.
study.system: Serine/threonine-protein kinase 4 (Homo sapiens);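 further: mean inhibition of MST1, part of the GSK PKIS dataset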
recorded.conditions: at 1 µM
Answers are plain numbers, in %.

Completed entries (count: 2):
Exam item: Any idea what inhibition was measured for "O=C(O[C@H]1CN[C@H](C#Cc2cc3ncnc(Nc4ccc(OCc5cccc(F)c5)c(Cl)c4)c3s2)C1)N1CCOCC1" ?
Marked response: 8.15

Exam item: Same question for "COc1ccccc1-c1cc(/C=C2\C(=O)Nc3ncc(Br)cc32)cc(Br)c1O" please.
Marked response: 8.19

Let us examine a further case.
Exam item: Any idea what inhibition was measured for "Cc1c2ccc(N(C)c3ccnc(Nc4cccc(S(N)(=O)=O)c4)n3)cc2nn1C" ?
Marked response: 8.01

----------
study.system: Discoidin domain-containing receptor 2 (Homo sapiens);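 further: reported figure is the mean inhibition of DDR2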
recorded.conditions: at 1 µM
Provide the reported inhibition of each item.
Write the figure, then the unit, nothing else.

Return reported inhibition values for all items listed beneath this line.
1. CCn1c(-c2nonc2N)nc2cncc(C(=O)NCCNC)c21
2. COc1c(C(N)=O)cc(-c2ccc(Cl)cc2)cc1-c1ccc(S(N)(=O)=O)cc1
3. COC(=O)Nc1nc2cc(Oc3ccc(NC(=O)Nc4ccccc4)cc3)ccc2[nH]1
4. Cc1cc(O)cc(C)c1/C=C/c1cncc(C(=O)OC(C)(C)C)c1

Marked response:
2.38%
2.64%
81.4%
2.49%

----------
Tested on: Epidermal growth factor receptor (Homo sapiens), P00533 [L858R,T790M]
Sequence (P00533 whole entry T790M/L858R, looked up): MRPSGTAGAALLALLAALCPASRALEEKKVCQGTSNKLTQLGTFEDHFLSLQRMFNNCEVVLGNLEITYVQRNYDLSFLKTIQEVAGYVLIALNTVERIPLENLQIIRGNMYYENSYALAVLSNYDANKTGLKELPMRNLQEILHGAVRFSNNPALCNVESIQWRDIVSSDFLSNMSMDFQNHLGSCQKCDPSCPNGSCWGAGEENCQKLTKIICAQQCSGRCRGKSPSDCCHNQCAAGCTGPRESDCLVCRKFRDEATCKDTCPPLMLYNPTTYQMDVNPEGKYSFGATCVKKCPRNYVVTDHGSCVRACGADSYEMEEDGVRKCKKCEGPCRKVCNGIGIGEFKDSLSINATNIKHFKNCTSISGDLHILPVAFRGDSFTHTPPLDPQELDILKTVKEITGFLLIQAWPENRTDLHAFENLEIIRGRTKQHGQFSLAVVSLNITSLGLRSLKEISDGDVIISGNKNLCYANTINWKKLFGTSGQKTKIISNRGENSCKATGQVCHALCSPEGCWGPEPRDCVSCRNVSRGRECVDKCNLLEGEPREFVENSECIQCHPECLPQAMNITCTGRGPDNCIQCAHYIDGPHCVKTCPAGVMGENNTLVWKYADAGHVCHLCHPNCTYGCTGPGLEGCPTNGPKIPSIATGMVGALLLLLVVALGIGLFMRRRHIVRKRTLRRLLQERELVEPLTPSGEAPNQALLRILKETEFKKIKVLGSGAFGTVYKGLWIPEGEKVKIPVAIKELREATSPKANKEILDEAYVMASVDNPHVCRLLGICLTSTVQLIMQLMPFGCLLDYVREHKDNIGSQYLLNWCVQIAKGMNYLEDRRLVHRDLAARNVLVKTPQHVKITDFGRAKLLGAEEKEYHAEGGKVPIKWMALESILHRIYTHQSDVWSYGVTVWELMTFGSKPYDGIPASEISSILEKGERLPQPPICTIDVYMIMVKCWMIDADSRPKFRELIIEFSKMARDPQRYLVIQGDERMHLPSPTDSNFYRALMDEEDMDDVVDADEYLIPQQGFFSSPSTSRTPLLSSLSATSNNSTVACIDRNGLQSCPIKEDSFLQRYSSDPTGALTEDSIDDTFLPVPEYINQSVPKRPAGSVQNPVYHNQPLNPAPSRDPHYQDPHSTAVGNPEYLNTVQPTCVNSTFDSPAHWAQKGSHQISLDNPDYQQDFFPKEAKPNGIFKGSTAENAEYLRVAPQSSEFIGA
recorded.conditions: at 1 µM
Provide the reported inhibition of each item.
Answers are plain numbers, in %.

Completed entries (count: 5):
Exam item: Any idea what inhibition was measured for "N#Cc1ccc2c(-c3ccnc(NC4CC4)n3)c(-c3ccc(F)cc3)nn2c1" ?
Marked response: 2.17

Exam item: Same question for "COc1cc2c(cc1Nc1nc(Nc3cccc(F)c3C(N)=O)c3cc[nH]c3n1)N(C(=O)CN1CCN(C(C)C)CC1)CC2" please.
Marked response: 47.3

Exam item: Same question for "CNC(=O)c1cncc(/C=C/c2ccccc2C)c1" please.
Marked response: 6.74

Exam item: Same question for "CC1(C)CC(n2cnc(-c3ccc(F)cc3)c2-c2ccnc(N)n2)CC(C)(C)N1" please.
Marked response: 1.85

Exam item: Same question for "CC(C)c1ccc(-c2cc(-c3c[nH]nc3-c3ccccn3)ccn2)cc1" please.
Marked response: -2.79

Return reported inhibition values for all items listed beneath this line.
1. COc1cccc(-n2ncc3c(N/N=C/c4ccc(C(=O)NCCN(C)C)cc4)ncnc32)c1
2. O=C(O[C@H]1CN[C@H](C#Cc2cc3ncnc(Nc4ccc(OCc5cccc(F)c5)c(Cl)c4)c3s2)C1)N1CCOCC1
3. Fc1cccc(COc2ccc(Nc3ncncc3C#Cc3ccccc3)cc2Cl)c1

Marked response:
25.9
9.08
5.02

Exam item: Any idea what inhibition was measured for "COC(=O)Nc1nc2cc(Oc3ccc(NC(=O)Nc4ccccc4)cc3)ccc2[nH]1" ?
Marked response: 2.14

----------
study.system: MAP kinase-interacting serine/threonine-protein kinase 2 (Homo sapiens) (UniProt Q9HBH9)
Sequence (Q9HBH9 whole entry, looked up): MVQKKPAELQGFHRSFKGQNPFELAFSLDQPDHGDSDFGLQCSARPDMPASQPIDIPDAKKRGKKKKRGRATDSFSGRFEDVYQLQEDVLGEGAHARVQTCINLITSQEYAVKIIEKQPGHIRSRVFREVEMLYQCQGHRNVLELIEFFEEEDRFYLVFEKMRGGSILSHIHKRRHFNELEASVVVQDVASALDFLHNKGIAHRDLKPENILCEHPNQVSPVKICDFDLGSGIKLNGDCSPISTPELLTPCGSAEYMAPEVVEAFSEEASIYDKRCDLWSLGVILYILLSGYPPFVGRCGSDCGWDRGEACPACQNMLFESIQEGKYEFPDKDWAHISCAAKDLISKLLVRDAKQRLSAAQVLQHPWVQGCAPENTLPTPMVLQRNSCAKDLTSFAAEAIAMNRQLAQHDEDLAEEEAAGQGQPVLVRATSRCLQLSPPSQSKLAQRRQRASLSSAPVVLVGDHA
recorded.conditions: at 1 µM
Description: GSK_PKIS: MNK2 mean inhibition at 1 uM [Nanosyn]
Provide the reported inhibition of each item.
Numbers only, in %.

Exam item: Value wanted: inhibition (MAP kinase-interacting serine/threonine-protein kinase 2 (Homo sapiens) (UniProt Q9HBH9)) of entry "CC(C)c1ccc(-c2cc(-c3c[nH]nc3-c3ccccn3)ccn2)cc1"
Marked response: 2.83

Exam item: Same question for "COc1c(C(N)=O)cc(-c2ccc(Cl)cc2)cc1-c1ccc(S(N)(=O)=O)cc1" please.
Marked response: 5.44

Exam item: Same question for CC1=C(C(=O)Nc2ccc3[nH]nc(C)c3c2)C(c2ccc(C(F)(F)F)cc2)CC(=O)N1 (centres undefined) please.
Marked response: 4.23

Exam item: Same question for "CNC(=O)c1ncccc1Nc1nc(Nc2cc3c(cc2OC)CCCN3C(=O)CN(C)C)nc2[nH]ccc12" please.
Marked response: 1.54

Exam item: Same question for "Cc1nnc(-c2cccc(-c3ccc(C(=O)NCC4CC4)cc3)c2)o1" please.
Marked response: 6.05

Return reported inhibition values for all items listed beneath this line.
1. CCn1c(-c2nonc2N)nc2cncc(C(=O)NCCNC)c21
2. COC(=O)Nc1nc2ccc(Oc3ccc(NC(=O)Nc4cc(C(F)(F)F)ccc4F)cc3)cc2s1
3. N#Cc1cccc(Nc2ncc(-c3ccccc3)o2)c1
4. c1ccc(-c2n[nH]cc2-c2ccnc(-c3ccc(OCCn4ccnc4)cc3)c2)nc1
5. NS(=O)(=O)c1cccc(N/C=C2\C(=O)Nc3ccccc32)c1
6. NC(=O)c1ccc2c(-c3ccnc(NCCCO)n3)c(-c3ccc(F)cc3)nn2c1

Marked response:
1: 13.4; 2: 7.88; 3: 8.7; 4: 7.2; 5: 2.05; 6: 7.35

Provenance of the data: ChEMBL document CHEMBL1961873
